Biological target: Chymotrypsinogen A (Bos taurus)
Experimental Endpoint: IC50 (nM)

O=C1CN(c2ccccc2)C(=O)N1S(=O)(=O)c1ccc(Cl)cc1 : 1100
O=C1CN(c2ccccc2)C(=O)N1S(=O)(=O)c1ccccc1Cl : 1200

---

# Chymase (Homo sapiens): IC50 values follow
# Sequence (P23946 whole entry): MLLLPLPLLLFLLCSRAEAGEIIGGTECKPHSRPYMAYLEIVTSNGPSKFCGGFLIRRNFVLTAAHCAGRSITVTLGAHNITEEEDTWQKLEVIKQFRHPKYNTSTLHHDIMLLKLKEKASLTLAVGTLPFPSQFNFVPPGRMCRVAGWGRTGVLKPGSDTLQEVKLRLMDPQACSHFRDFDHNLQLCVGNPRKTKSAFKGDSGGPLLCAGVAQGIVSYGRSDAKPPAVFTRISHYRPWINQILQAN
Experimental Endpoint: IC50 (nM)

CN1CCN(C(=O)c2cccc(S(=O)(=O)N3C(=O)CN(c4ccccc4)C3=O)c2)CC1 : 900
Cc1ccc(N2CC(=O)N(S(=O)(=O)c3ccc(Cl)c(Cl)c3)C2=O)cc1C : 20
Cc1ccccc1S(=O)(=O)N1C(=O)CN(c2ccccc2)C1=O : 1800

A. O=C1CN(c2ccc(Cl)c(Cl)c2)C(=O)N1S(=O)(=O)c1ccc(Cl)c(Cl)c1
B. CN1CCN(C(=O)c2ccc(N3CC(=O)N(S(=O)(=O)c4ccc(Cl)cc4)C3=O)cc2)CC1
C. Cc1ccc(S(=O)(=O)N2C(=O)CN(c3ccccc3)C2=O)cc1C
Form: Sort by [IC50] Order [ ascending ] Please list each label once, in the requested order.
C, A, B
